B1: Tyrosine-protein kinase Lck, residues 63 to 120; numbered along this chain, P06239 (parent)
chain: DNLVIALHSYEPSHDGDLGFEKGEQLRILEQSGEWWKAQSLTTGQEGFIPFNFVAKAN

variants of: B1; experiment: abundance fitness (aPCA) (normalised: wild type 0, dead -1); higher = more abundant; growth selection in yeast, the domain comes from the species named; conditions: Homo sapiens
quantity_name: abundance fitness
Give bare numbers.

Batch of 8 variants: report abundance fitness for each.
1. K56F
2. A38V
3. N2P
4. E21F
5. L29W
6. K37V
7. A57R
8. V4R

*A*
[-0.087, -0.104, -0.713, -0.515, -0.87, -0.232, -0.093, -0.29]
